Every entry's value here was drawn from ChEMBL document CHEMBL3112480.

# Test system: Staphylococcus epidermidis
# Experimental details: Antibacterial activity against Staphylococcus epidermidis ATCC 35547 assessed as effect on planktonic growth at 0.17 ug/ml after 20 hrs relative to control
# Type: functional
The molecules listed here are annotated with their Activity.
Give just the numeric value; % need not be written.

State the recorded Activity for this entry: COc1cccc(/C=C2/C(c3cc(Cl)ccc3OC)=C(Br)C(=O)N2CC(C)C)c1
5.8

###

# System: Pseudomonas aeruginosa
# Experimental details: Antibacterial activity against Pseudomonas aeruginosa ATCC 27853 assessed as effect on planktonic growth at 10.9 ug/ml after 20 hrs relative to control
# Assay type: functional
Activity values, listed per item
Entry rule: numbers only, all in %.

COc1ccc(Br)cc1C1=C(Br)C(=O)N(CC(C)C)/C1=C\c1cccc(Cl)c1 = -9
COc1ccc(C)cc1C1=C(Br)C(=O)N(CC(C)C)/C1=C\c1ccccc1Cl = -13.8
COc1ccc(Br)cc1C1=C(Br)C(=O)N(CC(C)C)/C1=C\c1ccc(Br)cc1 = -2.6
COc1ccc(Cl)cc1C1=C(Br)C(=O)N(CC(C)C)C1(O)Cc1ccccc1Br (stereo not drawn) = -14.9
COc1ccc(C)cc1C1=C(Br)C(=O)N(CC(C)C)/C1=C/c1cccc(Cl)c1 = 1.8
COc1ccccc1C1=C(Br)C(=O)N(CC(C)C)C1(O)Cc1ccc(C(F)(F)F)cc1 (stereo not drawn) = -16.2
COc1cccc(/C=C2/C(c3cc(Cl)ccc3OC)=C(Br)C(=O)N2CC(C)C)c1 = -15.5
COc1ccc(Br)cc1C1=C(Br)C(=O)N(CC(C)C)C1(O)Cc1ccc(Br)cc1 (stereo not drawn) = 64.1

Observed Activity on Pseudomonas aeruginosa for COc1ccc(C)cc1C1=C(Br)C(=O)N(CC(C)C)/C1=C/c1ccccc1Cl , please.
-15

###

# Test system: Staphylococcus epidermidis
# Experimental details: Antibacterial activity against Staphylococcus epidermidis ATCC 35547 assessed as effect on planktonic growth at 21.9 ug/ml after 20 hrs relative to control
# Assay type: functional
Give MET when the value for Activity is at least 30%. Give NOT MET when it is less.

# count of solved cases: 6
COc1ccc(C)cc1C1=C(Br)C(=O)N(CC(C)C)/C1=C/c1ccccc1Cl = NOT MET
COc1ccc(Br)cc1C1=C(Br)C(=O)N(CC(C)C)/C1=C/c1ccc(Br)cc1 = NOT MET
COc1ccc(Br)cc1C1=C(Br)C(=O)O/C1=C\c1ccc(Br)cc1 = NOT MET
COc1ccc(Cl)cc1C1=C(Br)C(=O)N(CC(C)C)C1(O)Cc1ccccc1Br (stereo not given) = NOT MET
COc1ccc(Br)cc1C1=C(Br)C(=O)N(CC(C)C)C1(O)Cc1ccc(Br)cc1 (stereo not given) = MET
COc1ccccc1C1=C(Br)C(=O)N(CC(C)C)/C1=C/c1ccc(C(F)(F)F)cc1 = MET

Activity >= 30% for COc1ccc(Br)cc1C1=C(Br)C(=O)N(CC(C)C)/C1=C\c1cccc(Cl)c1 ?
MET

Quick check: does COc1cccc(/C=C2\C(c3cc(Cl)ccc3OC)=C(Br)C(=O)N2CC(C)C)c1 have Activity greater than or equal to 30%?
NOT MET

Exam item: decide whether the reported Activity for COc1ccc(Cl)cc1C1=C(Br)C(=O)N(CC(C)C)/C1=C/c1ccccc1Br is at least 30%.
NOT MET

###

# Test system: Pseudomonas aeruginosa
# Experimental details: Antibacterial activity against Pseudomonas aeruginosa ATCC 27853 assessed as effect on planktonic growth at 10.9 ug/ml after 20 hrs relative to control
# Format: functional
Measure: Activity (%)
Response body: numeric value in %, unit text excluded.

Can you look up the measured Activity of COc1ccc(C)cc1C1=C(Br)C(=O)N(CC(C)C)C1(O)Cc1cccc(Cl)c1 (stereo not given) for me?
-9.6

Data request, read-out Activity, for COc1ccc(C)cc1C1=C(Br)C(=O)O/C1=C\c1ccccc1Cl
-10.2

# get_value(readout='Activity', item= COc1cccc(/C=C2\C(c3cc(Cl)ccc3OC)=C(Br)C(=O)N2CC(C)C)c1 )
8.8

###

# Tested on: Staphylococcus epidermidis
# Experimental details: Antibacterial activity against Staphylococcus epidermidis ATCC 35547 assessed as effect on planktonic growth at 2.73 ug/ml after 20 hrs relative to control
# Format: functional
compounds and their reported Activity

COc1cccc(/C=C2\OC(=O)C(Br)=C2c2cc(Cl)ccc2OC)c1 = -2.4%
COc1ccc(C)cc1C1=C(Br)C(=O)N(CC(C)C)C1(O)Cc1ccccc1Cl (stereo not given) = 2.8%
COc1ccc(C)cc1C1=C(Br)C(=O)O/C1=C\c1cccc(Cl)c1 = -4%

// Activity lookup, key: COc1ccc(C)cc1C1=C(Br)C(=O)N(CC(C)C)/C1=C\c1cccc(Cl)c1
11.4%

###

# Test system: Staphylococcus aureus
# Experimental details: Antibacterial activity against Staphylococcus aureus ATCC 25923 assessed as inhibition of biofilm formation after 20 hrs by crystal-violet staining method
# Assay type: functional, organism-based
# Assay conditions: ATCC 25923, 20 h
Measure: IC50

COc1ccccc1C1=C(Br)C(=O)N(CC(C)C)/C1=C/c1ccc(C(F)(F)F)cc1 = 95.1 µM

Shift focus to the following entry.
Name the recorded IC50 for COc1ccc(Cl)cc1C1=C(Br)C(=O)N(CC(C)C)C1(O)Cc1ccccc1Br (configuration not stated) .
6.8 µM

###

# Test system: Pseudomonas aeruginosa
# Experimental details: Antibacterial activity against Pseudomonas aeruginosa ATCC 27853 assessed as effect on planktonic growth at 1.37 ug/ml after 20 hrs relative to control
# Type: functional
Measure: Activity
Lab note: write values as number then unit, every time.

What measured Activity goes with COc1cccc(/C=C2\OC(=O)C(Br)=C2c2cc(Cl)ccc2OC)c1 ?
-7.3%

###

# Test system: Staphylococcus epidermidis
# Experimental details: Antibacterial activity against Staphylococcus epidermidis ATCC 35547 assessed as effect on planktonic growth at 2.73 ug/ml after 20 hrs relative to control
# Type: functional
Measured Activity, listed per entry.
Give a bare numeral; the unit % is implied.

COc1ccc(C)cc1C1=C(Br)C(=O)N(CC(C)C)/C1=C/c1ccccc1Cl = 0.4
COc1ccccc1C1=C(Br)C(=O)O/C1=C\c1ccc(C(F)(F)F)cc1 = 12.9
COc1ccc(Br)cc1C1=C(Br)C(=O)N(CC(C)C)C1(O)Cc1cccc(Cl)c1 (stereo not given) = 20.9
COc1cccc(/C=C2/C(c3cc(Cl)ccc3OC)=C(Br)C(=O)N2CC(C)C)c1 = -3.8
COc1ccc(Br)cc1C1=C(Br)C(=O)N(CC(C)C)C1(O)Cc1ccc(Br)cc1 (stereo not given) = 4.8

Consider the compound shown here: COc1ccccc1C1=C(Br)C(=O)N(CC(C)C)C1(O)Cc1ccc(C(F)(F)F)cc1 (stereo not given) What is its recorded Activity?
3.5

Please report the recorded Activity for COc1ccc(Br)cc1C1=C(Br)C(=O)O/C1=C\c1cccc(Cl)c1 .
0.1

Quick check: Activity of COc1ccc(Br)cc1C1=C(Br)C(=O)N(CC(C)C)/C1=C\c1ccc(Br)cc1 ?
11.2

Could you tell me which Activity is on file for COc1ccc(C)cc1C1=C(Br)C(=O)N(CC(C)C)/C1=C/c1cccc(Cl)c1 ?
18.1

Please look up its Activity: COc1ccc(Br)cc1C1=C(Br)C(=O)O/C1=C\c1ccc(Br)cc1
4.5

###

Listed next: entries and their corresponding Activity.
# System: Staphylococcus epidermidis
# Experimental details: Antibacterial activity against Staphylococcus epidermidis ATCC 35547 assessed as effect on planktonic growth at 0.17 ug/ml after 20 hrs relative to control
# Format: functional
# number only, unit % dropped from output

Example cases with answers are listed next.
COc1ccc(C)cc1C1=C(Br)C(=O)O/C1=C\c1ccccc1Cl = -1.6
COc1ccccc1C1=C(Br)C(=O)N(CC(C)C)C1(O)Cc1ccc(C(F)(F)F)cc1 (stereo not drawn) = 6.3
COc1ccccc1C1=C(Br)C(=O)O/C1=C\c1ccc(C(F)(F)F)cc1 = -12.1

State the recorded Activity for this entry: COc1ccc(C)cc1C1=C(Br)C(=O)N(CC(C)C)/C1=C\c1cccc(Cl)c1
5.6

Entry under review: COc1ccc(Cl)cc1C1=C(Br)C(=O)N(CC(C)C)/C1=C/c1ccccc1Br . Reported Activity?
1.9

# query: Activity of entry COc1ccc(Br)cc1C1=C(Br)C(=O)O/C1=C\c1ccc(Br)cc1
8.1

Query: Activity; subject: COc1cccc(/C=C2\C(c3cc(Cl)ccc3OC)=C(Br)C(=O)N2CC(C)C)c1
0.7

Name the reported Activity value associated with the molecule COc1ccc(Cl)cc1C1=C(Br)C(=O)N(CC(C)C)C1(O)Cc1ccccc1Br (stereo not drawn)
9.4

###

# System: Staphylococcus epidermidis
# Experimental details: Antibacterial activity against Staphylococcus epidermidis ATCC 35547 assessed as effect on planktonic growth at 0.34 ug/ml after 20 hrs relative to control
# Format: functional
Measure: Activity (%)
Provide the reading as a plain figure in %.

Example compounds with recorded Activity:
COc1cccc(/C=C2\OC(=O)C(Br)=C2c2cc(Cl)ccc2OC)c1 = 0.1
COc1ccc(Cl)cc1C1=C(Br)C(=O)N(CC(C)C)/C1=C\c1ccccc1Br = -0.2
COc1cccc(/C=C2\C(c3cc(Cl)ccc3OC)=C(Br)C(=O)N2CC(C)C)c1 = 0.4
COc1ccc(Br)cc1C1=C(Br)C(=O)O/C1=C\c1cccc(Cl)c1 = -6.1
COc1ccc(C)cc1C1=C(Br)C(=O)N(CC(C)C)/C1=C\c1ccccc1Cl = 17.8
COc1ccccc1C1=C(Br)C(=O)N(CC(C)C)/C1=C\c1ccc(C(F)(F)F)cc1 = -17
COc1ccc(C)cc1C1=C(Br)C(=O)N(CC(C)C)C1(O)Cc1cccc(Cl)c1 (stereo not drawn) = 2.4

Would you kindly look at the next entry?
Given the compound COc1ccc(C)cc1C1=C(Br)C(=O)N(CC(C)C)/C1=C\c1cccc(Cl)c1 , what is its reported Activity?
2.4
